Biological target: LFA-1 (Homo sapiens)
Sequence (P20701 26-1170): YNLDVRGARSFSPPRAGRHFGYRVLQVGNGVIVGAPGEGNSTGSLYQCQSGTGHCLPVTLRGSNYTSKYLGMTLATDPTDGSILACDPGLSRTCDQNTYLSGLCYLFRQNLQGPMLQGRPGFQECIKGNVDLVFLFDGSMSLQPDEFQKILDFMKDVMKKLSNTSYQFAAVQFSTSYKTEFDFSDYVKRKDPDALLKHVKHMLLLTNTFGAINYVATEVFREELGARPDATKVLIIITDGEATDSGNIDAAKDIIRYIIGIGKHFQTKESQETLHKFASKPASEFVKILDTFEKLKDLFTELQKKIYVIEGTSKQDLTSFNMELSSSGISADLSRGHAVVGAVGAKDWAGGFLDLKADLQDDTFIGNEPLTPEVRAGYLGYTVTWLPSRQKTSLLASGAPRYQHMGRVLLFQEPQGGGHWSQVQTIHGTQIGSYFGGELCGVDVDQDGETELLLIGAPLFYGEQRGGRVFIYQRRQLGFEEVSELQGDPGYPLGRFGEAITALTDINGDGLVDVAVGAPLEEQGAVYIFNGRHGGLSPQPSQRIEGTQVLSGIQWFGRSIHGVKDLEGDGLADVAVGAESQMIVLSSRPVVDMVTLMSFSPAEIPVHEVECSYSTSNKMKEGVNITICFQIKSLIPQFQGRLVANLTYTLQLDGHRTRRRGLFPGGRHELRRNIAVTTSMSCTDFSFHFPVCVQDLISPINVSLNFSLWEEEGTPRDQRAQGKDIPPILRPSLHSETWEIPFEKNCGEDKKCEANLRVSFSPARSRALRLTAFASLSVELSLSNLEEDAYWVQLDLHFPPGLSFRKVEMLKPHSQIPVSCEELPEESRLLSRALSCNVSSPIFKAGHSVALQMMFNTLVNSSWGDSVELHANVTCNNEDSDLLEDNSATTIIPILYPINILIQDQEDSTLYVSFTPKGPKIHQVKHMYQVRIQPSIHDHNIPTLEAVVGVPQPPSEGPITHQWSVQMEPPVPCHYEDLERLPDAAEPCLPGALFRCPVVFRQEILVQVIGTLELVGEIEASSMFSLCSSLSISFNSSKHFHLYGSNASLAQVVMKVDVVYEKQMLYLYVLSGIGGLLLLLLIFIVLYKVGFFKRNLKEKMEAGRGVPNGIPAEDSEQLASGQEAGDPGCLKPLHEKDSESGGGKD
Sequence (P05107 23-769 partner): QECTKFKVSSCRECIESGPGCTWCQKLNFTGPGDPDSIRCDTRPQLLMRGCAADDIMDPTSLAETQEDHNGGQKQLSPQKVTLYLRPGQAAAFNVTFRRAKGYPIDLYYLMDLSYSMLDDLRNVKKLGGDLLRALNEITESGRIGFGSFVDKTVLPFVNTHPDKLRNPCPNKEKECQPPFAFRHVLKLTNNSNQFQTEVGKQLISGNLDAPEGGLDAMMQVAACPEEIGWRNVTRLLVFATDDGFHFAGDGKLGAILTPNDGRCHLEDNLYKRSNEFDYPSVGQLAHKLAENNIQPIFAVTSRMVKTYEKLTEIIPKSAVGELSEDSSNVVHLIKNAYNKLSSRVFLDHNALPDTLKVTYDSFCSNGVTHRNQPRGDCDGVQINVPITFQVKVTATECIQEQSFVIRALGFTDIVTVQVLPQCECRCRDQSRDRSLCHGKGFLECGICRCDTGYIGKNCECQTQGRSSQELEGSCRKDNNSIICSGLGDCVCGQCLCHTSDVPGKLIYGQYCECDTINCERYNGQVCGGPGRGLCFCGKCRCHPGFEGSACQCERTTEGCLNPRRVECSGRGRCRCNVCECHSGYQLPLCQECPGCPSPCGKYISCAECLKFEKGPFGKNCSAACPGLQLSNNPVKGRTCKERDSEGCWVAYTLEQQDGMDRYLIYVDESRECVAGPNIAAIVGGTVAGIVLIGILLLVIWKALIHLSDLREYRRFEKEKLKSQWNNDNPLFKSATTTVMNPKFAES
Measurement name: pKd
Give only the number. pKd is defined as minus log10 of concentration in molar units.

Requested read-out pKd, target or system LFA-1 (Homo sapiens), entry O=C1N[C@H](Cc2ccccc2)C(=O)N1c1cc(Cl)cc(Cl)c1 [JEB I-19]
6.21
